Origin of the recorded values: PubChem BioAssay

Target: Torsin-1A-interacting protein 2 (Homo sapiens)
Experiment: LULL1 binders on small-molecule microarray, primary screen, cell lysate, human LULL1 lysate, 635/667 nm fluorescence (AID 1092);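 also: probe is lysate of COS7 cells overexpressing human LULL1; score merges per-feature 667 nm fluorescence with signal-to-noise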
Conditions: hLULL1 lysate binding, 635 nm fluorescence, higher = more signal
Binary call on composite z-score: condition met from 2 upward, condition not met beneath that.

Look over these answered cases.
Query :: Dear colleague, could you confirm whether COC(=O)c1ccc(OC)c(/C=C\CC(OC(=O)c2ccncc2)c2ccccc2)c1 (centres undefined) has composite z-score at or above 2?
Result :: condition not met

Query :: Dear colleague, could you confirm whether Cc1ccc(S[C@]2(C(=O)NCc3ccccc3)CC(=O)N(Cc3ccccc3Cl)[C@@H]2c2ccc(CO)cc2)cc1 has composite z-score at or above 2?
Result :: condition met

Query :: Dear colleague, could you confirm whether CC1C2C(CCCO)=CC(C3C(=O)N(C(N)=O)C(=O)C23)N1Cc1cccc(OC(F)(F)F)c1 (centres undefined) has composite z-score at or above 2?
Result :: condition met

Continuing:
Query :: Dear colleague, could you confirm whether CCCCC=C[C@@H](NC(=O)C(C)(C)C)c1ccccc1 has composite z-score at or above 2?
Result :: condition not met

Query :: Dear colleague, could you confirm whether CC(C)(C)OC(=O)CC[C@]1(C(=O)N2CCOCC2)COC(c2ccc(OCCCO)cc2)=N1 has composite z-score at or above 2?
Result :: condition met

Query :: Dear colleague, could you confirm whether C=C(CCCC)/C(=C/C[C@@H](OC(C)=O)c1cccc(OCCO)c1)c1cc(C(=O)OC)ccc1OC has composite z-score at or above 2?
Result :: condition not met

Query :: Dear colleague, could you confirm whether COC(=O)[C@@]1(Cc2ccc(OC)cc2)[C@H]2c3cc(C(=O)N(C)C)n(Cc4c(CO)[nH]cc(C)c4=O)c3C[C@H]2CN1C(=O)c1ccccc1 has composite z-score at or above 2?
Result :: condition met

Query :: Dear colleague, could you confirm whether CCCCCCc1nc(-c2ccc(OC)nc2)c(C)c2c1[Si](C(C)C)(C(C)C)OC2 has composite z-score at or above 2?
Result :: condition not met

Query :: Dear colleague, could you confirm whether Cc1ccc(S[C@]2(C(=O)NCC(C)C)CC(=O)N(C(C)C)[C@@H]2c2ccc(CO)cc2I)cc1 has composite z-score at or above 2?
Result :: condition not met

----------
Experiment: small-molecule microarray binders of probe aLefty2, primary screen, biochemical, biotinylated probe, 635/667 nm fluorescence (AID 1094);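 also: score merges spot fluorescence near 667 nm with spot signal-to-noise ratio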
Conditions: higher = more signal
ATTRIBUTE_MEASURED: composite z-score
Lab note: jot down the number only; don't add units.

Query :: For the molecule C=C(COC)C(=O)CC[C@@H](OC(=O)c1ccccc1-c1ccccc1C(=O)O)c1ccccc1OCCO , what composite z-score is on record?
Result :: -0.122

Query :: For the molecule CC(C)c1ccc(NN2C(C(O)C(C)c3ccccc3)C=CC3C(=O)N(c4ccccc4)C(=O)C32)cc1 (stereo not given) , what composite z-score is on record?
Result :: 0.57

Query :: For the molecule COc1ccc([Si](C)(C)[C@@H]2[C@@H](CC(=O)N3Cc4ccccc4C[C@H]3CO)O[C@]3(C(=O)N(Cc4ccc(I)cc4)c4ccccc43)[C@H]2C)cc1 , what composite z-score is on record?
Result :: 0.0007

Query :: For the molecule C=C(COC)C(=O)CC[C@H](OC(C)=O)c1ccccc1OCCO , what composite z-score is on record?
Result :: -0.166

Query :: For the molecule CCOC(=O)C1=CCC(c2ccncc2)N(S(=O)(=O)c2ccc(C)cc2)C1 (stereo not given) , what composite z-score is on record?
Result :: -0.0585

Continue with the molecule presented below.
Query :: For the molecule COCCCNC(=O)[C@@]1(Cc2ccccc2I)c2ccccc2C(=O)N(C2CCCCC2)[C@H]1c1ccc(CO)cc1 , what composite z-score is on record?
Result :: -0.106
